- measurement_target: E-selectin (Homo sapiens)
- Sequence (P16581 whole entry): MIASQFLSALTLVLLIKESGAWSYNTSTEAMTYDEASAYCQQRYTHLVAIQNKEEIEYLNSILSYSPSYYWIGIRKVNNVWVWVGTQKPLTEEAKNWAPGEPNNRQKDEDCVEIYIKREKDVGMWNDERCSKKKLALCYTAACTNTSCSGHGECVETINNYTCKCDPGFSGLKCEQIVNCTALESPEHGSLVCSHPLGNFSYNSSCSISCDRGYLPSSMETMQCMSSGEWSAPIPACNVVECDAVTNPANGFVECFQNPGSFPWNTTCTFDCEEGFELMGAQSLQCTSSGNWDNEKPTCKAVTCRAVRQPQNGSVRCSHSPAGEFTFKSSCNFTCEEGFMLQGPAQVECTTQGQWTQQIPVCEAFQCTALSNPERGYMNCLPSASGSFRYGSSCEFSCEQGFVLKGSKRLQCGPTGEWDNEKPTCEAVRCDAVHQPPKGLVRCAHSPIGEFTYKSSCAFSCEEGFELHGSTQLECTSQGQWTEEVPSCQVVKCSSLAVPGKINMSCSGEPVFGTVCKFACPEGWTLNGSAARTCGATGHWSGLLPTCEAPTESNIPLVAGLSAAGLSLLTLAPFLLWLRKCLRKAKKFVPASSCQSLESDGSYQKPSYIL
- measurement_notes: Inhibitory activity against Selectin E
experimental_endpoint: log10 IC50 (log10 of the value in µM)
On a log10 scale: recorded IC50, unit µM.

compound	log10 IC50
CCOC(=O)[C@@H](NC(=O)[C@@H]1C[C@H](O)CN1C(=O)CCCC(=O)O)[C@@H](C)O[C@@H]1O[C@@H](C)[C@@H](O)C(O)C1O (stereo partly drawn)	3.00
CCOC(=O)[C@@H](NC(=O)[C@@H]1C[C@@H](O)CN1C(=O)CCCC(=O)O)[C@@H](C)O[C@@H]1O[C@@H](C)[C@@H](O)C(O)C1O (stereo partly drawn)	2.48
CCOC(=O)[C@@H](NC(=O)[C@@H]1[C@@H](O)[C@@H](O)CN1C(=O)CCCC(=O)O)[C@@H](C)O[C@@H]1O[C@@H](C)[C@@H](O)C(O)C1O (stereo partly drawn)	1.70

-- ask Record request: log10 IC50 value, item CCOC(=O)[C@@H](NC(=O)[C@H]1C[C@H](O)CN1C(=O)CCCC(=O)O)[C@@H](C)O[C@@H]1O[C@@H](C)[C@@H](O)C(O)C1O (stereo partly drawn)
-- reply 2.00

-- ask What log10 IC50 value was documented for this compound, CCOC(=O)[C@@H](NC(=O)C(CO)(CO)NC(=O)CCCC(=O)O)[C@@H](C)O[C@@H]1O[C@@H](C)[C@@H](O)C(O)C1O (stereo partly drawn) ?
-- reply 2.95

-- ask Returns the measured log10 IC50 for the input compound. Input: CCCCCCCCCCCCCCCCOC(=O)CC[C@H](NCCOCCOCCNC(=O)[C@@H](NC(=O)[C@H]1C[C@H](O)CN1C(=O)CCCC(=O)O)[C@@H](C)O[C@@H]1O[C@@H](C)[C@@H](O)C(O)C1O)C(=O)OCCCCCCCCCCCCCCCC (stereo partly drawn)
-- reply 2.70

-- ask Entry CCOC(=O)[C@@H](NC(=O)[C@H]1C[C@@H](O)CN1C(=O)CCCC(=O)O)[C@@H](C)O[C@@H]1O[C@@H](C)[C@@H](O)C(O)C1O (stereo partly drawn) : reported log10 IC50 = ?
-- reply 3.48

-- ask Find the recorded log10 IC50 belonging to CCOC(=O)[C@@H](NC(=O)C1C[C@@H](O)CN1C(=O)CCCC(=O)O)[C@@H](C)O[C@H]1O[C@@H](C)[C@@H](O)C(O)C1O (single isomer, unassigned) and report it.
-- reply 2.00

---

- measurement_target: E-selectin (Homo sapiens)
- measurement_notes: Inhibitory activity against Selectin E
experimental_endpoint: pIC50
Hey, just a heads up that pIC50 is the negative log base 10 of the concentration in molar.

Record excerpt, results attached:
compound	pIC50
C[C@@H]1O[C@@H](O[C@@H]2CCCC[C@H]2NC(=O)[C@@H]2[C@@H](O)[C@@H](O)CN2C(=O)CCCC(=O)O)C(O)C(O)[C@@H]1O (stereo partly drawn)	2.30
CCOC(=O)[C@@H](NC(=O)[C@H](NC(=O)CCCC(=O)O)[C@@H](O)CO)[C@@H](C)O[C@@H]1O[C@@H](C)[C@@H](O)C(O)C1O (stereo partly drawn)	3.30

Next item in the queue.
-- ask If you can, please state the reported pIC50 value of CCCCCCCCCCCCCCCCOC(=O)CC[C@H](NC(=O)CNC(=O)[C@@H](NC(=O)[C@H]1C[C@H](O)CN1C(=O)CCCC(=O)O)[C@@H](C)O[C@@H]1O[C@@H](C)[C@@H](O)C(O)C1O)C(=O)OCCCCCCCCCCCCCCCC (stereo partly drawn) .
-- reply 3.30

From: ChEMBL document CHEMBL1128932
